Origin of measurements: ChEMBL document CHEMBL4346705

- Tested on: EKVX
- protocol: Antiproliferative activity against human EKVX cells assessed as cell viability at 10^-5 M incubated for 48 hrs by sulforhodamine B assay relative to control
- Assay type: functional
- run-parameters: read-out: Activity
Some compounds, each annotated with its measured viability at 10 µM.
attribute-measured: viability at 10 µM (%)

compound="O=C1NC2C(CC(O)C(O)C2O)c2cc3c(c(O)c21)OCCO3 (racemic)" recorded_number=-14.3
compound="O=C1NC2C(CC(O)C(O)C2O)c2cc3c(cc21)OCCO3 (racemic)" recorded_number=97.4
compound="CCOc1cc2c(cc1OCC)C1CC(O)C(O)C(O)C1NC2=O (racemic)" recorded_number=102
compound="CCOc1cc2c(c(O)c1OCC)C(=O)NC1C2CC(O)C(O)C1O (racemic)" recorded_number=99.7
compound="CCOc1c(OC)cc2c(c1O)C(=O)NC1C2CC(O)C(O)C1O (racemic)" recorded_number=98
compound="O=C1NC2C(CC(O)C(O)C2O)c2cc3c(c(O)c21)OCO3 (racemic)" recorded_number=-26.3
compound="CCOc1cc2c(c(OC)c1OCC)C(=O)NC1C2CC(O)C(O)C1O (racemic)" recorded_number=99.1
compound="COc1cc2c(c3c1OCCO3)C(=O)NC1C2CC(O)C(O)C1O (racemic)" recorded_number=103
compound="CCOc1c(OC)cc2c(c1OCC)C(=O)NC1C2CC(O)C(O)C1O (racemic)" recorded_number=97.5
compound="CCCOc1cc2c(cc1OCC)C1CC(O)C(O)C(O)C1NC2=O (racemic)" recorded_number=104

* * *

- System: DU-145
- protocol: Antiproliferative activity against human DU145 cells assessed as cell viability at 10^-5 M incubated for 48 hrs by sulforhodamine B assay relative to control
- Type: functional
- run-parameters: DU-145, 48 h, read-out: Activity
attribute-measured: viability at 10 µM (%)

molecule="CCOc1cc2c(c(O)c1OCC)C(=O)NC1C2CC(O)C(O)C1O (racemic)" target_or_system=DU-145 attribute_measured="viability at 10 µM" recorded_number=105
molecule="O=C1NC2C(CC(O)C(O)C2O)c2cc3c(c(O)c21)OCCO3 (racemic)" target_or_system=DU-145 attribute_measured="viability at 10 µM" recorded_number=-2.39
molecule="CCOc1cc2c(cc1OCC)C1CC(O)C(O)C(O)C1NC2=O (racemic)" target_or_system=DU-145 attribute_measured="viability at 10 µM" recorded_number=106

* * *

Some compounds, each annotated with its measured viability at 10 µM.
- System: MCF7
- protocol: Antiproliferative activity against human MCF7 cells assessed as cell viability at 10^-5 M incubated for 48 hrs by sulforhodamine B assay relative to control
- Assay type: functional
- run-parameters: MCF7, 48 h, read-out: Activity
attribute-measured: viability at 10 µM

compound="CCOc1cc2c(c(OCC)c1OCC)C(=O)NC1C2CC(O)C(O)C1O (racemic)" target_or_system=MCF7 attribute_measured="viability at 10 µM" result=95.6%
compound="O=C1NC2C(CC(O)C(O)C2O)c2cc3c(c(O)c21)OCCO3 (racemic)" target_or_system=MCF7 attribute_measured="viability at 10 µM" result=-13.3%
compound="O=C1NC2C(CC(O)C(O)C2O)c2cc3c(c(O)c21)OCO3 (racemic)" target_or_system=MCF7 attribute_measured="viability at 10 µM" result=1.73%

* * *

- System: DU-145
- protocol: Antiproliferative activity against human DU145 cells assessed as cell viability at 10^-5 M incubated for 48 hrs by sulforhodamine B assay relative to control
- Format: functional
- run-parameters: DU-145, 48 h, read-out: Activity
attribute-measured: viability at 10 µM (%)

compound="COc1cc2c(c(OC)c1OC)C(=O)NC1C2CC(O)C(O)C1O (racemic)" measurement_units=% recorded_number=110
compound="CCOc1cc2c(c(OC)c1OCC)C(=O)NC1C2CC(O)C(O)C1O (racemic)" measurement_units=% recorded_number=106
compound="CCOc1c(OC)cc2c(c1O)C(=O)NC1C2CC(O)C(O)C1O (racemic)" measurement_units=% recorded_number=109
compound="O=C1NC2C(CC(O)C(O)C2O)c2cc3c(c(O)c21)OCO3 (racemic)" measurement_units=% recorded_number=-19.1
compound="COc1cc2c(c3c1OCCO3)C(=O)NC1C2CC(O)C(O)C1O (racemic)" measurement_units=% recorded_number=103
compound="O=C1NC2C(CC(O)C(O)C2O)c2cc3c(cc21)OCCO3 (racemic)" measurement_units=% recorded_number=114
compound="CCCOc1cc2c(cc1OCC)C1CC(O)C(O)C(O)C1NC2=O (racemic)" measurement_units=% recorded_number=110
compound="COc1c2c(cc3c1C(=O)NC1C3CC(O)C(O)C1O)OCCO2 (racemic)" measurement_units=% recorded_number=107
compound="CCOc1cc2c(c(OCC)c1OCC)C(=O)NC1C2CC(O)C(O)C1O (racemic)" measurement_units=% recorded_number=113
compound="CCOc1c(OC)cc2c(c1OCC)C(=O)NC1C2CC(O)C(O)C1O (racemic)" measurement_units=% recorded_number=110

* * *

Some molecules, each annotated with its measured viability at 10 µM.
- System: SK-MEL-2
- protocol: Antiproliferative activity against human SK-MEL-2 cells assessed as cell viability at 10^-5 M incubated for 48 hrs by sulforhodamine B assay relative to control
- Format: functional
- run-parameters: SK-MEL-2, 48 h, read-out: Activity
attribute-measured: viability at 10 µM (%)

molecule="COc1c2c(cc3c1C(=O)NC1C3CC(O)C(O)C1O)OCCO2 (racemic)" measurement_units=% recorded_number=100
molecule="CCOc1c(OC)cc2c(c1OCC)C(=O)NC1C2CC(O)C(O)C1O (racemic)" measurement_units=% recorded_number=103
molecule="COc1cc2c(c3c1OCCO3)C(=O)NC1C2CC(O)C(O)C1O (racemic)" measurement_units=% recorded_number=110
molecule="COc1cc2c(c(OC)c1OC)C(=O)NC1C2CC(O)C(O)C1O (racemic)" measurement_units=% recorded_number=117
molecule="CCOc1cc2c(cc1OCC)C1CC(O)C(O)C(O)C1NC2=O (racemic)" measurement_units=% recorded_number=100
molecule="O=C1NC2C(CC(O)C(O)C2O)c2cc3c(c(O)c21)OCO3 (racemic)" measurement_units=% recorded_number=-63.6
molecule="CCOc1c(OC)cc2c(c1O)C(=O)NC1C2CC(O)C(O)C1O (racemic)" measurement_units=% recorded_number=106
molecule="CCOc1cc2c(c(OC)c1OCC)C(=O)NC1C2CC(O)C(O)C1O (racemic)" measurement_units=% recorded_number=110
molecule="O=C1NC2C(CC(O)C(O)C2O)c2cc3c(cc21)OCCO3 (racemic)" measurement_units=% recorded_number=109
molecule="CCOc1cc2c(c(O)c1OCC)C(=O)NC1C2CC(O)C(O)C1O (racemic)" measurement_units=% recorded_number=109

* * *

- Test system: UACC-62
- protocol: Antiproliferative activity against human UACC62 cells assessed as cell viability at 10^-5 M incubated for 48 hrs by sulforhodamine B assay relative to control
- Assay type: functional
- run-parameters: UACC-62, 48 h, read-out: Activity
attribute-measured: viability at 10 µM

compound="CCOc1cc2c(cc1OCC)C1CC(O)C(O)C(O)C1NC2=O (racemic)" attribute_measured="viability at 10 µM" result=96.1%
compound="CCOc1cc2c(c(OCC)c1OCC)C(=O)NC1C2CC(O)C(O)C1O (racemic)" attribute_measured="viability at 10 µM" result=101%
compound="CCOc1cc2c(c(O)c1OCC)C(=O)NC1C2CC(O)C(O)C1O (racemic)" attribute_measured="viability at 10 µM" result=93%

* * *

- System: NCI-H522
- protocol: Antiproliferative activity against human NCI-H522 cells assessed as cell viability at 10^-5 M incubated for 48 hrs by sulforhodamine B assay relative to control
- Type: functional
- run-parameters: NCI-H522, 48 h, read-out: Activity
Some molecules, each annotated with its measured viability at 10 µM.
attribute-measured: viability at 10 µM (%)

molecule="O=C1NC2C(CC(O)C(O)C2O)c2cc3c(c(O)c21)OCCO3 (racemic)" attribute_measured="viability at 10 µM" recorded_number=-36.1
molecule="CCOc1cc2c(c(O)c1OCC)C(=O)NC1C2CC(O)C(O)C1O (racemic)" attribute_measured="viability at 10 µM" recorded_number=92.6
molecule="CCCOc1cc2c(cc1OCC)C1CC(O)C(O)C(O)C1NC2=O (racemic)" attribute_measured="viability at 10 µM" recorded_number=96.7
molecule="CCOc1c(OC)cc2c(c1O)C(=O)NC1C2CC(O)C(O)C1O (racemic)" attribute_measured="viability at 10 µM" recorded_number=92.3
molecule="COc1c2c(cc3c1C(=O)NC1C3CC(O)C(O)C1O)OCCO2 (racemic)" attribute_measured="viability at 10 µM" recorded_number=93.5
molecule="O=C1NC2C(CC(O)C(O)C2O)c2cc3c(c(O)c21)OCO3 (racemic)" attribute_measured="viability at 10 µM" recorded_number=-32.6
molecule="CCOc1cc2c(cc1OCC)C1CC(O)C(O)C(O)C1NC2=O (racemic)" attribute_measured="viability at 10 µM" recorded_number=89.5
molecule="COc1cc2c(c(OC)c1OC)C(=O)NC1C2CC(O)C(O)C1O (racemic)" attribute_measured="viability at 10 µM" recorded_number=97.7
molecule="O=C1NC2C(CC(O)C(O)C2O)c2cc3c(cc21)OCCO3 (racemic)" attribute_measured="viability at 10 µM" recorded_number=101
molecule="CCOc1cc2c(c(OCC)c1OCC)C(=O)NC1C2CC(O)C(O)C1O (racemic)" attribute_measured="viability at 10 µM" recorded_number=89.2
molecule="CCOc1cc2c(c(OC)c1OCC)C(=O)NC1C2CC(O)C(O)C1O (racemic)" attribute_measured="viability at 10 µM" recorded_number=93.3
molecule="COc1cc2c(c3c1OCCO3)C(=O)NC1C2CC(O)C(O)C1O (racemic)" attribute_measured="viability at 10 µM" recorded_number=93
molecule="CCOc1c(OC)cc2c(c1OCC)C(=O)NC1C2CC(O)C(O)C1O (racemic)" attribute_measured="viability at 10 µM" recorded_number=88.9
